- Tested on: MDA-MB-453
- protocolSummary: normalised viability (% of control), CellTiter-Blue; higher = more viable cells (about 100 = DMSO control)
- particulars: incubation time: 72 h
observationType: normalised viability (%)
Write the number in % without appending the unit.

compound	measurementTarget	recordedMeasurement
CNC(=O)c1ccccc1Sc1ccc2c(/C=C/c3ccccn3)n[nH]c2c1 [Axitinib] (300 nM)	MDA-MB-453	96.8
CC[C@H](CO)Nc1nc(NCc2ccccc2)c2ncn(C(C)C)c2n1 [Roscovitine] (300 nM)	MDA-MB-453	86.9
CO[C@@H]1[C@H](N(C)C(=O)c2ccccc2)C[C@H]2O[C@]1(C)n1c3ccccc3c3c4c(c5c6ccccc6n2c5c31)C(=O)NC4 [Midostaurin] (300 nM)	MDA-MB-453	65.5
CCNC(=O)CCC/C=C\C[C@@H]1[C@@H](/C=C/[C@@H](O)CCc2ccccc2)[C@H](O)C[C@@H]1O [Bimatoprost] (165 nM)	MDA-MB-453	102
Nc1ccn([C@@H]2O[C@H](CO)[C@@H](O)C2(F)F)c(=O)n1 [Gemcitabine] (30 nM)	MDA-MB-453	60.2
COc1c2occc2cc2ccc(=O)oc12 [Methoxsalen] (300 nM)	MDA-MB-453	99.9

Enquiry: Which measured normalised viability value corresponds to CN(Cc1cnc2nc(N)nc(N)c2n1)c1ccc(C(=O)N[C@@H](CCC(=O)O)C(=O)O)cc1 [Methotrexate] (300 nM) ?
Return: 95.2
